Tested on: HL-60(TB) leukemia
assay explanation: NCI tumour cell line growth inhibition, 48 h
Provide the reported TGI of each item.

Take a look at these entries with their results.
compound: COC(=O)C(Cc1ccc2c(c1)OCO2)(NC(=O)c1ccccc1)P(=O)(OC)OC (stereo not drawn)
TGI: > 100 µM
//
compound: O=c1[nH]c2ccccc2c(=O)c2cc3ccccc3cc12
TGI: > 100 µM

Problem: Look up TGI for this compound: Nc1cc2c(C3OC(CO)C(O)C3O)[nH]nc2c(=S)[nH]1 (stereo not drawn)
Solution: > 100 µM

----------
System: HCT-116 colon
assay explanation: NCI tumour cell line growth inhibition, 48 h; in the data active = GI50 below about 0.43 µM; inactive = the rest
Result category, one only: TRUE (active), FALSE (inactive)

Problem: Assay result, entry CC[C@@]12CC(C(=O)OC)=C3Nc4ccccc4[C@@]34CCN(C[C@H]3O[C@H]31)[C@@H]24 — outcome?
Solution: FALSE

Problem: Same question for Cc1ccc(CNc2ccc(Cl)cc2NCc2ccc(C)c(O)c2)cc1O please.
Solution: FALSE

Problem: Same question for CC1SC(c2ccc(OCc3ccccc3)cc2)N(NC(=O)C(O)(c2ccccc2)c2ccccc2)C1=O (stereo unspecified) please.
Solution: FALSE

Problem: Same question for N#CCC1CCN(c2nc(Nc3ccc(N4CCC(O)CC4)cc3)c3c(=O)[nH]ncc3n2)CC1 please.
Solution: TRUE

Problem: Same question for C=CN(C(=O)N1CCN(c2cc3c(cc2F)c(=O)c(C(=O)O)cn3C2CC2)CC1)c1nc(-c2ccc(C)cc2)cs1 please.
Solution: TRUE

Problem: Same question for N#CSc1c[nH]c2cccc(/C=C/C(=O)/C=C(O)/C=C/c3cccc4[nH]cc(SC#N)c34)c12 please.
Solution: TRUE

----------
Provide the reported TGI of each item.
Tested on: T-47D breast
assay explanation: NCI tumour cell line growth inhibition, 48 h

Take a look at these entries with their results.
compound: CCOP(=O)(OCC)/C(F)=C/c1ccc(F)cc1
target desc: T-47D breast
measured: > 100 µM
--
compound: NS(=O)(=O)c1ccc(NCc2cccc3c(=O)c4ccc(Cl)cc4oc23)cc1
target desc: T-47D breast
measured: > 100 µM

Next compound, please.
Problem: Look up TGI for this compound: O=C1OCC2=C1C(c1ccc(Cl)cc1)c1cc3c(cc1O2)OCO3 (stereo not drawn)
Solution: > 100 µM

----------
Provide the reported TGI of each item.
Test system: HCT-15 colon
assay explanation: NCI tumour cell line growth inhibition, 48 h

Take a look at these entries with their results.
molecule: CC1SC(c2ccc(OCc3ccccc3)cc2)N(NC(=O)C(O)(c2ccccc2)c2ccccc2)C1=O (stereo not given)
target desc: HCT-15 colon
readout label: TGI
measured: 12.7 µM
//
molecule: CC(=O)OCC1OC(NC(=S)Nn2c(-c3ccccc3)nc3ccccc3c2=O)C(OC(C)=O)C(OC(C)=O)C1OC(C)=O (stereo not given)
target desc: HCT-15 colon
readout label: TGI
measured: > 100 µM

For every item below, please supply its TGI.
1. C=C(CN1CCc2ccccc2C1)c1ccc(C(=O)Nc2cccc(N)c2)cc1
2. Cn1c2ccccc2n2c3ccccc3c3nnc(N)c-3c12

Solution:
1. 69.8 µM
2. > 100 µM

For every item below, please supply its TGI.
1. C/C(=C/C(=O)N(C)c1ccccc1Cl)O[Si](C(C)C)(C(C)C)C(C)C
2. N#CC(C#N)=CNC(=S)Nc1ccc(S(=O)(=O)Nc2nccs2)cc1
3. CCOC(=O)c1cn2c(n1)sc1cc([N+](=O)[O-])ccc12
4. CCc1cccc(CC)c1NC1=CC(=O)C(=O)c2ccccc21
5. CCCCP1(=O)C=CC(Cl)=C(C)C1 (stereo not given)
6. Fc1cnccc1-c1nc2ccc3[nH]ncc3c2c2c1CCCC2
7. CSc1ccc(/C=C2\N=C(c3ccccc3)N(NC(=O)c3c(Cl)c(Cl)c(Cl)c(Cl)c3-c3nc4ccccc4[nH]3)C2=O)cc1

Solution:
1. 37.1 µM
2. > 100 µM
3. > 100 µM
4. 57.7 µM
5. > 100 µM
6. > 100 µM
7. > 100 µM

For every item below, please supply its TGI.
1. COc1cccc(-c2cc(-c3ccc(Nc4nc(Nc5ccc(Cl)cc5)nc(Nc5ccc(Cl)cc5)n4)cc3)nc(N)c2C#N)c1
2. COC(=O)c1c(O)ccc2c1c1c(n2CCc2ccccc2)C(=O)c2ccccc2C1
3. O=c1[nH]nc(Nc2ccc(Cl)cc2)c2nnn(-c3ccc([N+](=O)[O-])cc3)c12
4. O=C1/C(=C/c2ccc(Cl)cc2)NC(=S)N1CN1CCCCC1
5. O=c1[nH]c2c(ccc3cnccc32)c2c1CCC2
6. CC(=O)O[C@@H]1[C@H]2O[C@H]2[C@H]2O[C@@]2(COC(=O)c2ccccc2)[C@H]1OC(C)=O

Solution:
1: > 24.2 µM; 2: 63.8 µM; 3: > 100 µM; 4: 58.2 µM; 5: > 100 µM; 6: > 100 µM

For every item below, please supply its TGI.
1. O=C(c1ccccc1)N1CCc2c([nH]c3ccccc23)C1
2. O=C(c1ccco1)c1c(C(F)(F)F)n([O-])c2cc(Cl)c(Cl)cc2[n+]1=O
3. Cc1ccccc1C1N=C2Oc3ccccc3C=C2C(=O)N1 (stereo not given)
4. O=C(CNC(=O)c1cccc2ccccc12)Nc1ccccc1Oc1ccc(O)cc1
5. O=c1oc2cc(O)ccc2c(O)c1C(c1ccc(/C=C/c2ccccc2)cc1)c1c(O)c2ccc(O)cc2oc1=O
6. NC(Cc1c2ccccc2cc2ccccc12)C(=O)O (stereo not given)
7. C#CC[C@]12CC(=O)CC[C@H]1CC1(C2)OCCO1

Solution:
1. > 100 µM
2. 0.654 µM
3. > 100 µM
4. > 25 µM
5. > 100 µM
6. > 100 µM
7. > 100 µM

For every item below, please supply its TGI.
1. CCCCCCCCCCCCNC(=O)N[C@H](C(=O)N[C@H]1/C=C/OCCNC(=O)/C=C/[C@H](C(C)C)NC1=O)C(C)C
2. CN(C)CCCCN1c2ccccc2Sc2ccc(N=[N+]=[N-])cc21
3. O=C(Nc1cc(Cl)ccc1Cl)c1cc2ccccc2oc1=O
4. C=CN(C(=O)N1CCN(c2cc3c(cc2F)c(=O)c(C(=O)O)cn3C2CC2)CC1)c1nc(-c2ccc(C)cc2)cs1
5. COC(=O)c1c(C(=O)OC)c2ccccn2c1-c1cc(C)cc2c1C(=O)C=CC2=O
6. CN1CN(c2ccccc2)C2(CCN(CCCN(C)c3ccc(F)cc3)CC2)C1=O

Solution:
1. > 100 µM
2. 12.8 µM
3. > 100 µM
4. > 100 µM
5. 15.6 µM
6. 50.1 µM

Values were extracted from PubChem BioAssay (NCI).
